Molecular target: Cannabinoid receptor 2 (Homo sapiens)
Sequence (P34972 whole entry): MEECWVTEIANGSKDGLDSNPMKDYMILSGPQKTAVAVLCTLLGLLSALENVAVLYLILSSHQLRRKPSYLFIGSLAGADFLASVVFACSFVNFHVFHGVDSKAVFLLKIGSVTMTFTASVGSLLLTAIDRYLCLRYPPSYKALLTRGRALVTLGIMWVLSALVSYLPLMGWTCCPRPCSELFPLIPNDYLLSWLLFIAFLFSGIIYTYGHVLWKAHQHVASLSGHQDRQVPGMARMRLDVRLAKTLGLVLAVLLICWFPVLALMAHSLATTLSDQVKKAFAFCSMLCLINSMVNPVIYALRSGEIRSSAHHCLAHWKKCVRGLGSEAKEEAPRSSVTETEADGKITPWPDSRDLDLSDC
Experiment: Antagonist activity at CB2 receptor (unknown origin) expressed in CHO cells up to 10 uM incubated for 10 mins prior to CP55940 addition by calcium mobilization assay
Assay type: functional, cell-based
Please go through the items and note down their pIC50.
Give bare numbers, as −log10 of the molar value.

Hi team, please reply with pIC50 for each item in this list.
1. CCCCOc1c(OC)ccc2cc(C(=O)NC3CCCCC3)c(=O)oc12
2. CCCCCOc1c(OC)ccc2cc(C(=O)NC3CCCCC3)c(=O)oc12
3. CCCCOc1c(OC)ccc2cc(C(=O)NC(C)C(C)C)c(=O)oc12 (configuration not stated)
4. CCCCOc1c(OC)ccc2cc(C(=O)NCC3CC3)c(=O)oc12
5. CCCCOc1c(OC)ccc2cc(C(=O)NC(C)C)c(=O)oc12
6. CCCOc1c(OC)ccc2cc(C(=O)NC3CCCCC3)c(=O)oc12
7. CCCCOc1c(OC)ccc2cc(C(=O)NC(CC)CC)c(=O)oc12
8. O=C(NC1CCCCC1)c1cc2cc(Br)cc(OCC3CC3)c2oc1=O

Found:
1: 7.66; 2: 7.21; 3: 7.55; 4: 5.93; 5: 6.79; 6: 6.09; 7: 7.70; 8: 6.13

Hi team, please reply with pIC50 for each item in this list.
1. CCCCCOc1cc(Br)cc2cc(C(=O)NC3CCCCC3)c(=O)oc12
2. CCCCCOc1c(OC)ccc2cc(C(=O)NCc3ccc4c(c3)OCO4)c(=O)oc12
3. CCCCOc1c(OC)ccc2cc(C(=O)NC(C)CCC)c(=O)oc12 (configuration not stated)
4. CCCCOc1cc(Br)cc2cc(C(=O)NC3CCCCC3)c(=O)oc12

Found:
1. 5.66
2. 6.19
3. 7.72
4. 7.05

----------
Please go through the items and note down their Activity.
Target: UniProtKB P34972
Assay: Agonist activity at CB2 receptor (unknown origin) expressed in CHO cells at 10 uM by calcium mobilization assay relative to control
Format: functional, cell-based
Numbers only, in %.

O=C(NC1CCCCC1)c1cc2cccc(OCC3CC3)c2oc1=O :: 42
CCCCOc1cccc2cc(C(=O)NC(C)C(C)C)c(=O)oc12 (stereo unspecified) :: 41
CCCCCCOc1cccc2cc(C(=O)NC3CCCCC3)c(=O)oc12 :: 36
CCCCOc1cccc2cc(C(=O)NC3CC3)c(=O)oc12 :: 34
CCCCOc1cccc2cc(C(=O)NN3CCCCC3)c(=O)oc12 :: 37

Please turn your attention to the following entry.
Lookup: Which Activity is reported for this compound? `O=C(NC1CCCCC1)c1cc2cccc(OCc3ccccc3)c2oc1=O`
Found: 33

----------
Molecular target: UniProt:P21554
Sequence (P21554 whole entry): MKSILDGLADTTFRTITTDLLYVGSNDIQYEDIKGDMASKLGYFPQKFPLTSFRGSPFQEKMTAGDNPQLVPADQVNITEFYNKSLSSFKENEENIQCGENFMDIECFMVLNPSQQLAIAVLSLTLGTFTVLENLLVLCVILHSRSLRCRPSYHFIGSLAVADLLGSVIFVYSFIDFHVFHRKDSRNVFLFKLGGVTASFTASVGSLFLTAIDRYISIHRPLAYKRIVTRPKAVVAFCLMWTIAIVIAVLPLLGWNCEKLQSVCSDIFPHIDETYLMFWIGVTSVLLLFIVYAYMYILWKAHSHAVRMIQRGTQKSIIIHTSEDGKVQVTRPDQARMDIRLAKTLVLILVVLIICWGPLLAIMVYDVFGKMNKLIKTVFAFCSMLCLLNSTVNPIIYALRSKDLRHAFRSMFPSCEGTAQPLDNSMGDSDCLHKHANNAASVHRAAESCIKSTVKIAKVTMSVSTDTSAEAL
Type: functional, cell-based, CHO
Please go through the items and note down their IC50.

Worked cases, answers included:
O=C(NC1CCCCC1)c1cc2cc(Br)cc(OCC3CC3)c2oc1=O :: > 10 µM
CCCCCOc1c(OC)ccc2cc(C(=O)NCc3ccc4c(c3)OCO4)c(=O)oc12 :: > 10 µM
CCCCCOc1c(OC)ccc2cc(C(=O)NC3CCCCC3)c(=O)oc12 :: > 10 µM

Hi team, please reply with IC50 for each item in this list.
1. CCCCOc1c(OC)ccc2cc(C(=O)NC(C)C)c(=O)oc12
2. CCCCCOc1cc(Br)cc2cc(C(=O)NC3CCCCC3)c(=O)oc12
3. CCCCOc1c(OC)ccc2cc(C(=O)NCC3CC3)c(=O)oc12

Found:
["> 10 µM", "> 10 µM", "> 10 µM"]

Hi team, please reply with IC50 for each item in this list.
1. CCCCOc1c(OC)ccc2cc(C(=O)NC3CCCCC3)c(=O)oc12
2. CCCCOc1cc(Br)cc2cc(C(=O)NC3CCCCC3)c(=O)oc12
3. CCCCOc1cc(Br)cc2cc(C(=O)NC3CC3)c(=O)oc12

Found:
1: > 10 µM; 2: > 10 µM; 3: > 10 µM

Hi team, please reply with IC50 for each item in this list.
1. CCCCOc1cc(Br)cc2cc(C(=O)NN3CCOCC3)c(=O)oc12
2. CCCOc1cc(Br)cc2cc(C(=O)NC3CCCCC3)c(=O)oc12
3. CCCCOc1cc(Br)cc2cc(C(=O)NC(C)C)c(=O)oc12
4. CCCCOc1c(OC)ccc2cc(C(=O)NC(C)CCC)c(=O)oc12 (configuration not stated)

Found:
1. > 10 µM
2. > 10 µM
3. > 10 µM
4. > 10 µM

----------
Here's a batch of molecules along with measured log10 Ki for Cannabinoid receptor 2 (Homo sapiens).
Recall that a logarithmic scale is used here: each number is log10 of Ki in nM.

Worked cases, answers included:
CCCCCOc1cc(C(=O)NCCc2ccncc2)ccc1OC :: 1.86
CCCCCOc1c(OC)ccc2c(=O)n(CCc3ccncc3)ccc12 :: 0.92

Hi team, please reply with log10 Ki for each item in this list.
1. CCCCCOc1cc(/C=C/C(=O)NCCc2ccc(O)cc2)ccc1OC
2. CCCCCOc1c(OC)ccc2cc(C(=O)NCc3ccc4c(c3)OCO4)c(=O)oc12
3. CCCCCOc1c(OC)ccc2c1CN(CCc1ccc(O)cc1)C2=O
4. CCCCCOc1cc(C(=O)NC2CCc3cc(O)c(O)cc3C2)ccc1OC (centres undefined)
5. CCCCCOc1c(OC)ccc2cc(C(=O)N3CCCc4ccccc4C3)c(=O)[nH]c12

Found:
1. 0.68
2. -1.06
3. 1.04
4. 1.26
5. 2.07

Hi team, please reply with log10 Ki for each item in this list.
1. CCCCOc1c(OC)ccc2cc(C(=O)NCCc3ccccc3)c(=O)[nH]c12
2. CCCCCOc1ccc2c(c1OCCCCC)CN(CCc1ccc(N)cc1)C2=O

Found:
[-0.48, -0.96]

Hi team, please reply with log10 Ki for each item in this list.
1. CCCCCOc1ccc(C(=O)NCCc2ccc(O)cc2)cc1OCCCCC
2. CCCCCOc1c(OC)ccc2c1CCN(CCc1ccc(O)cc1)C2=O
3. CCCCCSc1cc(/C=C/C(=O)NCCc2ccc(O)cc2)ccc1OC
4. CCCCCOc1c(OC)ccc2c1C(=O)N(CCc1ccc(O)cc1)C2=O

Found:
1. -0.36
2. 0.26
3. 0.04
4. 0.86

Hi team, please reply with log10 Ki for each item in this list.
1. CCCCCOc1c(OC)ccc2cc(C(=O)N3CCCC(C(=O)OCC)C3)c(=O)[nH]c12 (centres undefined)
2. CCCCCOc1cc(C(=O)NCCc2ccc(O)cc2)ccc1OC
3. CCCCCOc1c(OC)ccc2c1CN(CCc1ccc(N)cc1)C2=O
4. CCCCCNc1c(OC)ccc2c1CN(CCc1ccc(O)cc1)C2=O
5. CCCCCOc1c(OC)ccc2c(=O)n(CCc3ccc(O)cc3)ccc12
6. CCCCCOc1ccc(C(=O)NCCc2ccc(N)cc2)cc1SCCCCC

Found:
1. 2.00
2. 0.40
3. 1.15
4. -1.06
5. 0.57
6. 0.28

----------
Species on record: Homo sapiens
Test: Selectivity index, ratio of EC50 for CB1 receptor (unknown origin) to EC50 for CB2 receptor (unknown origin)
Please go through the items and note down their Ratio EC50.

CCCCOc1cccc2cc(C(=O)NC(C)CCC)c(=O)oc12 (stereo not drawn) :: > 31.2
CCCCOc1cccc2cc(C(=O)NC3CCCC3)c(=O)oc12 :: > 12.6
CCCCOc1cccc2cc(C(=O)NC(C)C)c(=O)oc12 :: > 97.1
CCCCOc1cccc2cc(C(=O)NC3CCCCC3)c(=O)oc12 :: > 69.4

Hi team, please reply with Ratio EC50 for each item in this list.
1. CCCCOc1cccc2cc(C(=O)NC(C)(C)C)c(=O)oc12
2. CCCCOc1cccc2cc(C(=O)NC(CC)CC)c(=O)oc12

Found:
> 10.3
> 76.9

Hi team, please reply with Ratio EC50 for each item in this list.
1. CCCCCOc1cccc2cc(C(=O)NC3CCCCC3)c(=O)oc12
2. O=C(NCC1CCOCC1)c1cnc(Nc2ccc(Cl)cc2Cl)nc1C(F)(F)F [GW842166X]

Found:
["> 40.8", "> 23.2"]

----------
Species: Homo sapiens
Experiment: Selectivity index, ratio of IC50 for CB1 receptor (unknown origin) to IC50 for CB2 receptor (unknown origin)
Please go through the items and note down their Ratio IC50.

Worked cases, answers included:
CCCCCOc1cc(Br)cc2cc(C(=O)NC3CCCCC3)c(=O)oc12 :: 4.6
CCCCOc1cc(Br)cc2cc(C(=O)NC3CCCCC3)c(=O)oc12 :: > 111
CCCCCOc1c(OC)ccc2cc(C(=O)NC3CCCCC3)c(=O)oc12 :: > 164
CCCCCOc1c(OC)ccc2cc(C(=O)NCc3ccc4c(c3)OCO4)c(=O)oc12 :: > 15.5

Hi team, please reply with Ratio IC50 for each item in this list.
1. CCCCOc1c(OC)ccc2cc(C(=O)NC3CCCCC3)c(=O)oc12
2. CCCCOc1c(OC)ccc2cc(C(=O)NC(C)C)c(=O)oc12

Found:
["> 454", "> 61.7"]

Hi team, please reply with Ratio IC50 for each item in this list.
1. CCCCOc1c(OC)ccc2cc(C(=O)NC(CC)CC)c(=O)oc12
2. CCCCOc1c(OC)ccc2cc(C(=O)NC(C)C(C)C)c(=O)oc12 (configuration not stated)
3. CCCCOc1c(OC)ccc2cc(C(=O)NCC3CC3)c(=O)oc12
4. O=C(NC1CCCCC1)c1cc2cc(Br)cc(OCC3CC3)c2oc1=O
5. CCCCOc1c(OC)ccc2cc(C(=O)NC(C)CCC)c(=O)oc12 (configuration not stated)
6. CCCOc1c(OC)ccc2cc(C(=O)NC3CCCCC3)c(=O)oc12

Found:
> 500
> 357
> 8.5
> 13.4
> 526
> 12.4
